molecular target: IL-17RA/IL17RC dimerization induced by IL-17A (Homo sapiens); experiment: IL-17RA/IL17RC dimerization assay in response to IL-17A (PathHunter Cytokine Receptor Assay); assay type: cell-based; conditions: IL-17A at EC80; read-out: IC50 in IL-17RA/IL7RC dimerization assay
pIC50: −log10 of the molar value. Residues, ends and D or L forms follow the SMILES beside them.
readoutLabel: pIC50

CC[C@H](C)[C@H](NC(=O)[C@H](CCC(N)=O)NC(=O)[C@@H](NC(=O)[C@H](Cc1c[nH]cn1)NC(=O)[C@@H](NC(C)=O)C(C)C)C(C)C)C(=O)N1CCC[C@H]1C(=O)N[C@@H](C)C(=O)N[C@@H](CC(=O)O)C(=O)N[C@@H](Cc1ccccc1)C(=O)N[C@@H](Cc1c[nH]c2ccccc12)C(=O)N[C@@H](CCC(=O)O)C(=O)N[C@@H](Cc1c[nH]c2ccccc12)C(=O)N[C@@H](Cc1ccccc1)C(=O)N[C@@H](CCCNC(=N)N)C(=O)N[C@@H](CCCNC(=N)N)C(N)=O [SEQ ID NO: 143] (Ac-VHVQIPADFWEWFRR-NH2) : > 6.30

###

molecular target: IL-17RA/IL17RC dimerization induced by IL-17A (Homo sapiens); test: IL-17RA/IL17RC dimerization assay in response to IL-17A (PathHunter Cytokine Receptor Assay); assay type: cell-based; conditions: IL-17A at EC80; read-out: IC50 in IL-17RA/IL7RC dimerization assay
pIC50: −log10 of the molar value. Residues, ends and D or L forms follow the SMILES beside them.
Below, each entry is listed alongside its reported pIC50.
readoutLabel: pIC50

CC[C@H](C)[C@H](NC(=O)[C@H](Cc1c[nH]c2ccccc12)NC(=O)[C@H](CC(=O)O)NC(=O)[C@H](Cc1c[nH]c2ccccc12)NC(=O)[C@H](CC(C)C)NC(=O)[C@H](CC(=O)O)NC(=O)[C@H](C)NC(=O)[C@@H]1CCCN1C(=O)[C@@H](NC(=O)[C@H](Cc1ccc(O)cc1)NC(=O)[C@@H](NC(=O)[C@H](CCCNC(=N)N)NC(=O)[C@H](CC(C)C)NC(C)=O)[C@@H](C)CC)C(C)C)C(=O)N[C@@H](CC(N)=O)C(=O)N[C@@H](CCCCN)C(N)=O [SEQ ID NO: 241] (Ac-LRIYVPADLWDWINK-NH2) : > 5.00
CC(=O)N[C@H](C(=O)N[C@@H](Cc1c[nH]cn1)C(=O)N[C@@H](Cc1ccccc1)C(=O)N[C@@H](CCC(N)=O)C(=O)N[C@@H](Cc1ccccc1)C(=O)N1CCC[C@H]1C(=O)N[C@@H](CCC(N)=O)C(=O)N[C@@H](CC(=O)O)C(=O)N[C@@H](Cc1c[nH]c2ccccc12)C(=O)N[C@@H](Cc1c[nH]c2ccccc12)C(=O)N[C@@H](CC(N)=O)C(=O)N[C@@H](Cc1c[nH]c2ccccc12)C(=O)N[C@H](C(=O)N[C@@H](CCCNC(=N)N)C(=O)N[C@@H](CCCNC(=N)N)C(N)=O)C(C)C)C(C)C [SEQ ID NO: 139] (Ac-VHFQFPQDWWNWVRR-NH2) : > 6.30

###

biological target: IL-17RA/IL17RC dimerization induced by IL-17A (Homo sapiens); assay: IL-17RA/IL17RC dimerization assay in response to IL-17A (PathHunter Cytokine Receptor Assay); assay type: cell-based; conditions: IL-17A at EC80; read-out: IC50 in IL-17RA/IL7RC dimerization assay
pIC50: −log10 of the molar value. Residues, ends and D or L forms follow the SMILES beside them.
readoutLabel: pIC50

CC[C@H](C)[C@H](NC(C)=O)C(=O)N[C@@H](Cc1c[nH]cn1)C(=O)N[C@H](C(=O)N[C@H](C(=O)N[C@H](C(=O)N1CCC[C@H]1C(=O)N[C@@H](C)C(=O)N[C@@H](CC(=O)O)C(=O)N[C@@H](C)C(=O)N[C@@H](Cc1c[nH]c2ccccc12)C(=O)N[C@@H](CC(=O)O)C(=O)N[C@@H](Cc1c[nH]c2ccccc12)C(=O)N[C@H](C(=O)N[C@@H](CC(N)=O)C(=O)N[C@@H](CCCCN)C(N)=O)[C@@H](C)CC)[C@@H](C)CC)[C@@H](C)O)C(C)C [SEQ ID NO: 201] (Ac-IHVTIPADAWDWINK-NH2) : > 5.00
CC[C@H](C)[C@H](NC(=O)[C@H](Cc1c[nH]c2ccccc12)NC(=O)[C@H](CC(=O)O)NC(=O)[C@H](Cc1c[nH]c2ccccc12)NC(=O)[C@H](CC(C)C)NC(=O)[C@H](CC(=O)O)NC(=O)[C@H](C)NC(=O)[C@@H]1CCCN1C(=O)[C@@H](NC(=O)[C@H](CO)NC(=O)[C@@H](NC(=O)[C@H](CCCCN)NC(=O)[C@@H](NC(C)=O)C(C)C)[C@@H](C)CC)C(C)C)C(=O)N[C@@H](CC(N)=O)C(=O)N[C@@H](CCCCN)C(N)=O [SEQ ID NO: 239] (Ac-VKISVPADLWDWINK-NH2) : > 5.00

###

Below, each entry is listed alongside its reported IC50.
target: IL-17RA/IL17RC dimerization induced by IL-17A (Homo sapiens, UniProt Q16552); assay: IL-17RA/IL17RC dimerization assay in response to IL-17A (PathHunter Cytokine Receptor Assay); assay type: cell-based; conditions: IL-17A at EC80; read-out: IC50 in IL-17RA/IL7RC dimerization assay
Sequence (Q16552 24-155): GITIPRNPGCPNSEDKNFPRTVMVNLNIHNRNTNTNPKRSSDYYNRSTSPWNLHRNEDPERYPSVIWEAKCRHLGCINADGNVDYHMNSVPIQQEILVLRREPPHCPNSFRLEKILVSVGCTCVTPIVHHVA
Residues, ends and D or L forms follow the SMILES beside them.
readoutLabel: IC50

CC[C@H](C)[C@H](NC(=O)CNC(=O)[C@H](C)NC(=O)CNC(=O)[C@@H]1CCCN1C(=O)[C@@H](NC(=O)CNC(=O)[C@H](C)NC(=O)CNC(=O)[C@@H]1CCCN1C(=O)[C@@H](NC(C)=O)C(C)C)C(C)C)C(=O)N[C@@H](Cc1c[nH]cn1)C(=O)N[C@H](C(=O)N[C@H](C(=O)N[C@H](C(=O)N1CCC[C@H]1C(=O)N[C@@H](C)C(N)=O)[C@@H](C)CC)[C@@H](C)O)C(C)C [SEQ ID NO: 157] (Ac-VPGAGVPGAGIHVTIPA-NH2) : < 0.5 µM
CC(=O)N[C@H](C(=O)N[C@H](C(=O)N[C@H](C(=O)N[C@@H](Cc1ccc(O)cc1)C(=O)N[C@H](C(=O)N[C@@H](Cc1ccccc1)C(=O)N[C@@H](CC(N)=O)C(=O)N[C@@H](CCC(=O)O)C(=O)N[C@@H](CCC(N)=O)C(=O)N[C@@H](Cc1c[nH]cn1)C(=O)N[C@@H](CCC(N)=O)C(=O)N[C@@H](CCC(=O)O)C(=O)N[C@@H](Cc1ccc(O)cc1)C(=O)N[C@H](C(=O)N[C@@H](CCCNC(=N)N)C(=O)N[C@@H](CCCCN)C(N)=O)C(C)C)C(C)C)C(C)C)C(C)C)[C@@H](C)O [SEQ ID NO: 257] (Ac-TVVYVFNEQHQEYVRK-NH2) : < 10 µM

###

target: IL-17RA/IL17RC dimerization induced by IL-17A (Homo sapiens); assay: IL-17RA/IL17RC dimerization assay in response to IL-17A (PathHunter Cytokine Receptor Assay); format: cell-based; details: IL-17A at EC80; read-out: IC50 in IL-17RA/IL7RC dimerization assay
Residues, ends and D or L forms follow the SMILES beside them.
readoutLabel: IC50

CC(=O)N[C@H](C(=O)N[C@@H](Cc1c[nH]cn1)C(=O)N[C@@H](Cc1ccccc1)C(=O)N[C@H](C(=O)N[C@@H](Cc1ccccc1)C(=O)N1CCC[C@H]1C(=O)N[C@@H](CCC(N)=O)C(=O)N[C@@H](CC(=O)O)C(=O)N[C@@H](CC(C)C)C(=O)N[C@@H](Cc1c[nH]c2ccccc12)C(=O)N[C@@H](CCC(=O)O)C(=O)N[C@@H](Cc1c[nH]c2ccccc12)C(=O)N[C@H](C(=O)N[C@@H](CCCNC(=N)N)C(=O)N[C@@H](CCCNC(=N)N)C(N)=O)C(C)C)[C@@H](C)O)C(C)C [SEQ ID NO: 124] (Ac-VHFTFPQDLWEWVRR-NH2) : < 500 nM

###

target: IL-17RA/IL17RC dimerization induced by IL-17A (Homo sapiens); assay: IL-17RA/IL17RC dimerization assay in response to IL-17A (PathHunter Cytokine Receptor Assay); format: cell-based; conditions: IL-17A at EC80; read-out: IC50 in IL-17RA/IL7RC dimerization assay
pIC50: −log10 of the molar value. Residues, ends and D or L forms follow the SMILES beside them.
readoutLabel: pIC50

CC[C@H](C)[C@H](NC(=O)[C@@H](NC(=O)[C@@H](NC(=O)[C@H](Cc1c[nH]cn1)NC(=O)[C@@H](NC(C)=O)C(C)C)C(C)C)[C@@H](C)O)C(=O)N1CCC[C@H]1C(=O)N[C@@H](C)C(=O)N[C@@H](CC(=O)O)C(=O)N[C@@H](CC(C)C)C(=O)N[C@@H](Cc1ccc(O)cc1)C(=O)N[C@@H](CC(N)=O)C(=O)N[C@@H](Cc1ccccc1)C(=O)N[C@@H](Cc1ccccc1)C(=O)N[C@@H](CCCNC(=N)N)C(=O)N[C@@H](CCCNC(=N)N)C(N)=O [SEQ ID NO: 149] (Ac-VHVTIPADLYNFFRR-NH2) : > 6.30

Where do these numbers come from? They come from patent US11236129B2.
